Data provenance is patent US20240150440A1.

Each entry below lists one item and its recorded pEC50 value.
# experimentalSystem: T1, SARS-CoV-2 Gamma Variant RBD (SARS-CoV-2 Gamma variant)
# T1 construct: domain: RBD; coated on ELISA plates
# experimentSummary: ELISA, RBD coated
Scale: pEC50 equals -log10([C]), with [C] in mol/L.

Here is how some binders turned out for pEC50.
PP1098 MBP-5HVZ-PAPA-RN-9-H6 (VHH) VHH: QVQLVESGGGLVQPGGSLRLSCAASGLRFAMTEMAWFRQAPGKQREFVALITEGGSGSYGDSVKGRFTISRDNAKNTVYLQMNSLKPEDTAVYYCAALHYTEGANTESATTFDYWGQGTQVTVSS ... 7.95
PP1102 MBP-5HVZ-PAPA-RN-17-H6 (VHH, Form: Dimer) VHH: QVQLVESGGGLVQPGGSLRLSCAASGSMYSRAVMHWFRQAPGKEREGVASIGRTGDSYYADSVKGRFTISRDNAKNTVYLQMNSLKPEDTAVYYCAADNLDVVYGNRYWGQGTQVTVSS ... 8.90
PP913 MBP-5HVZ-S3a-C5-H6 (VHH, Form: Dimer) VHH: QVQLVESGGGLVQPGGSLRLSCAASGSIKNTNAMHWFRQAPGKDREWVAGITSGGNSNYGDSVKGRFTISRDNAKNTVYLQMNSLKPEDTAVYYCAAFGYRYDQDYTYDYWGQGTQVTVSS ... 7.21
PP1154 MBP-5HVZ-PAPA-R5d-G1-H6 (VHH, Form: Dimer) VHH: QVQLVESGGGLVQPGGSLRLSCAASGSIFGINDVHWFRQAPGKEREFVATITNGLSARYKDSVKGRFTISRDNAKNTVYLQMNSLKPEDTAVYYCAAQVYITTYELYDYWGQGTQVTVSS ... 7.80
PP1109 MBP-5HVZ-PAPA-RN-25-H6 (VHH, Form: Dimer) VHH: QVQLVESGGGLVQPGGSLRLSCAASGEDYSYNAAHWFRQAPGKEREWVAAINSGGGTYYADSVKGRFTISRDNAKNTVYLQMNSLKPEDTAVYYCAYLGALDRDGYDAWGQGTQVTVSS ... 7.96

# pEC50 of PP1149 MBP-5HVZ-PAPA-R5a-E5-H6 (VHH, Form: Dimer) VHH: QVQLVESGGGLVQPGGSLRLSCAASGYDFDILRMAWFRQAPGKEREMVAAITSAESVNYEDSVKGRFTISRDNAKNTVYLQMNSLKPEDTAVYYCATYDYTDDYGYASWGQGTQVTVSS = 6.87

What the record says about PP911 MBP-5HVZ-S2b-F7-H6 (VHH, Form: Dimer) VHH: QVQLVESGGGLVQPGGSLRLSCAASGSTLSNNAMHWFRQAPGKAREFVAAIGSSDSTDYKDSVKGRFTISRDNAKNTVYLQMNSLKPEDTAVYYCTALLDSGPGEYNYWGQGTQVTVSS : pEC50 is 6.50

In plain terms, PP1103 MBP-5HVZ-PAPA-RN-18-H6 (VHH, Form: Dimer) VHH: QVQLVESGGGLVQPGGSLRLSCAASGYYFQIVAMHWYRQAPGKEREGVAGITSTGSTYYGDSVKGRFTISRDNAKNTVYLQMNSLKPEDTAVYYCNAVSTDAQGAAEYWGQGTQVTVSS has a documented pEC50 of 7.03
